Where do the numbers come from? From patent US20200016159A1.

Molecular target: UniProtKB P29275
Sequence (P29275 whole entry): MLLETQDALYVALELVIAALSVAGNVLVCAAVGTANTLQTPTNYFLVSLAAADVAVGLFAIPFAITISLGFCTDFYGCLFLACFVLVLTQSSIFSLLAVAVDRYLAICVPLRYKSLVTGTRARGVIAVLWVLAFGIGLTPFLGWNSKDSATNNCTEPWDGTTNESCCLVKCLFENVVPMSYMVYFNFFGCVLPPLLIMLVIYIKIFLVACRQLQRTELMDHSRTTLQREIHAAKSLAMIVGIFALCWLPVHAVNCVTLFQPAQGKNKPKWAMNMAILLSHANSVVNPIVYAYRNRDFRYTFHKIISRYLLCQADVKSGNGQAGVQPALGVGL
Test: Cellular in vitro reporter gene test for A2b receptor activity (antagonism of NECA)
Conditions: recombinant CHO-K1 cells, CRE-luciferase reporter, co-incubation with EC50 concentration of NECA, 3 hours
readout: IC50 (nM)

Sample records with IC50:
>>> readout_number("CCC1CC1n1c(=O)c2c(C)c(Cn3nc[nH]c3=O)sc2n(CCOC)c1=O (single isomer, unassigned) [Example 304]")
350
>>> readout_number("Cc1c(Cn2nc[nH]c2=O)sc2c1c(=O)n([C@H]1C[C@@H]1C)c(=O)n2CCCC(F)(F)F")
5.5

(1) COCCn1c(=O)n([C@H]2C[C@@H](OC)C2)c(=O)c2c(C)c(CN3CCNC(=O)C3=O)sc21
(2) Cc1c(Cn2nc[nH]c2=O)sc2c1c(=O)n(C1CC1)c(=O)n2CC1CC(F)(F)C1
(3) CCOCCn1c(=O)n(C2(C)CC2)c(=O)c2c(C)c(CN3CCNC3=O)sc21
(4) Cc1c(CN2CCNC2=O)sc2c1c(=O)n(C1CC1C)c(=O)n2CCCF (single isomer, unassigned) [Example 91]
(5) CCC1CC1n1c(=O)c2c(C)c(CN3CCNC3=O)sc2n(CCOC)c1=O (racemic) [Example 300]
Query: Please list these in order of increasing IC50. Thank you! Use the labels to give the requested order.
Response: 2, 5, 4, 3, 1
